- Organism: Mus musculus
- EXPERIMENT_DESCRIPTION: Optimal dose required for activity against P388 lymphocytic leukemia.
- Assay type: functional
The entries below are paired with their reported OD.
QUANTITY_NAME: OD

{"columns": ["MOLECULE", "QUANTITY_NAME", "RESULT"],
 "data": [
  ["C/C=C1\\C[C@H]2[C@@H](OC)Nc3cc(O)c(OC)cc3C(=O)N2C1", "OD", "0.2 mg/kg"],
  ["O=C1c2ccccc2N=CC2CCCN12 (configuration not stated)", "OD", "8 mg/kg"],
  ["O=C1c2cccc(O)c2N=CCN1Cc1ccccc1", "OD", "16 mg/kg"],
  ["COc1cc2c(cc1O)N[C@H](OC)[C@@H]1CC(O)CN1C2=O (some centres not stated)", "OD", "6.4 mg/kg"],
  ["COC(=O)/C=C1/C[C@H]2[C@@H](S(=O)(=O)[O-])Nc3cc(O)c(OC)cc3C(=O)N2C1.[Na+]", "OD", "6 mg/kg"],
  ["CCOC(=O)CN1CC=Nc2c(O)cccc2C1=O", "OD", "40 mg/kg"],
  ["O=C1NCC=Nc2c(O)cccc21", "OD", "16 mg/kg"],
  ["C#CCN1CC=Nc2c(O)cccc2C1=O", "OD", "16 mg/kg"],
  ["C/C=C/CN1CC=Nc2c(O)cccc2C1=O", "OD", "20 mg/kg"],
  ["CN1CC=Nc2c(O)cccc2C1=O", "OD", "16 mg/kg"],
  ["COc1cc2c(cc1O)N[C@@H](OC)[C@@H]1CC(O)CN1C2=O (some centres not stated)", "OD", "16 mg/kg"],
  ["C=CCN1CC=Nc2c(O)cccc2C1=O", "OD", "80 mg/kg"]
]}
